These entries and their values trace back to patent US9862730B2.

target: PAR4 (Homo sapiens (Human)); experiment: Gamma thrombin induced platelet aggregation assay in PRP (PRP assay); format: cell-based
Sequence (Q96RI0 18-385): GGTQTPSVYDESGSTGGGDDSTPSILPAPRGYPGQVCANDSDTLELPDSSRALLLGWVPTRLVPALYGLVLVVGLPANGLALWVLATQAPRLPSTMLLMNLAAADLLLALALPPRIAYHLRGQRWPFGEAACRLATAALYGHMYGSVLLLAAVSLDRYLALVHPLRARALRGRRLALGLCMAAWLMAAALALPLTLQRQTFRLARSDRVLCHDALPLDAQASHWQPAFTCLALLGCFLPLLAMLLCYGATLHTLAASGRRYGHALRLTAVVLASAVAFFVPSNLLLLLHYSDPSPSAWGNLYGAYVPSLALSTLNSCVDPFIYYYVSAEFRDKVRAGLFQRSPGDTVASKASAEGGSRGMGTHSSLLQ
Exercise: for every item that follows, state its recorded IC50.
A number alone suffices; assume nM.

Any idea what IC50 was measured for CCOc1nn2cc(-c3cc4c(OCc5cccc(OCc6ccccc6)c5)cc(OC)cc4o3)nc2s1 [Example 348] ? 3080

Now the compound COc1cc(OCc2cccc(OCc3cccnc3)c2)c2cc(-c3cn4nc(OC)sc4n3)oc2c1 [Example 398] 66.2

Now the compound COc1cc(OCc2cccc(OCc3ccccc3)c2)c2cc(-c3cn4nc(Cl)sc4n3)oc2c1 [Example 405] 544

Now the compound COc1cc(OCc2cccc(OCc3cccc(C)c3)c2)c2cc(-c3cn4nc(OC)sc4n3)oc2c1 [Example 386] 55

Now the compound COc1cc(OCc2cccc(OCc3c(F)cccc3Cl)c2)c2cc(-c3cn4nc(OC)sc4n3)oc2c1 [Example 370] 151

Now the compound CSc1nn2cc(-c3nc4c(OCc5cccc(OCc6ccccc6)c5)cccc4o3)nc2s1 [Example 173] 5280

Now the compound COc1cc(OCc2cccc(OCc3ccc(F)c(F)c3F)c2)c2cc(-c3cn4nc(OC)sc4n3)oc2c1 [Example 325] 86.2

Now the compound COc1cc(OCc2cccc(OCc3csc(C)n3)c2)c2cc(-c3cn4nc(OC)sc4n3)oc2c1 [Example 399] 4.95

Now the compound COc1cc(OCc2cccc(OCc3cccc(C)n3)c2)c2cc(-c3cn4nc(OC)sc4n3)oc2c1 [Example 307] 101

Now the compound COc1cc(COc2cc(OC)cc3oc(-c4cn5nc(OC)sc5n4)cc23)cc(OCc2ccccc2)c1 [Example 404] 22.5

Now the compound COc1cc(OCc2cccc(OCc3cccc(Oc4ccccc4)c3)c2)c2cc(-c3cn4nc(OC)sc4n3)oc2c1 [Example 384] 568

Now the compound COc1cc(OCc2cccc(OCc3cccc(OC)c3OC)c2)c2cc(-c3cn4nc(OC)sc4n3)oc2c1 [Example 353] 10.5

Now the compound COc1cc(OCc2cccc(OCc3cccc(C(F)(F)F)c3F)c2)c2cc(-c3cn4nc(OC)sc4n3)oc2c1 [Example 316] 93.3

Now the compound COc1cc(OCc2cccc(OCc3ccccn3)c2)c2cc(-c3cn4nc(OC)sc4n3)oc2c1 [Example 319] 124

Now the compound COc1nn2cc(-c3cc4c(OCc5cccc(OCc6ccccc6)c5)cc(OC)c(Cl)c4o3)nc2s1 [Example 415] 3270

Now the compound COc1cccc2cc(-c3cn4nc(SC)sc4n3)oc12 [Example 14] 9440

Now the compound COc1cc(OCc2cccc(OCc3ccc(Oc4ccccc4)cc3)c2)c2cc(-c3cn4nc(OC)sc4n3)oc2c1 [Example 372] 3410

Now the compound CSc1nn2cc(-c3cc4cccc(C)c4o3)nc2s1 [Example 22] 8760

Now the compound COc1cc(COc2cccc(COc3cc(OC)cc4oc(-c5cn6nc(OC)sc6n5)cc34)c2)cc(OCc2ccccc2)c1 [Example 373] 2500

Now the compound COc1nn2cc(-c3cc4c(F)cc(OCc5cccc(OCc6ccccc6)c5)cc4o3)nc2s1 [Example 428] 73.2

Now the compound Brc1nn2cc(-c3cc4ccccc4o3)nc2s1 [Example 68] 16700
